Reported area over the GR curve by item:
- Tested on: MDAMB415
- assay.summary: area over the GR curve, 72 h; higher = more effect;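 note: Dye Drop or Deep Dye Drop imaging of viable cells in 384-well plates (Hoechst nuclei, LIVE/DEAD dye), nine half-log doses, GR normalized to DMSO controls and time-zero plates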
Give a bare numeral; the unit GR is implied.

CN1CCN(C(=O)c2ccc3cc(CCNc4ncnc5ccc(C#N)cc45)ccc3c2)CC1 [senexin b] (max 10 µM): 0.173
CN(C)C/C=C/C(=O)Nc1ccc(O[C@@H]2CCC[C@@H](Nc3ncc(Cl)c(-c4c[nH]c5ccccc45)n3)C2)cc1 [BSJ-01-175] (max 10 µM): 0.676
CCc1cncnc1N1CCN(Cc2nc3ccc(C(F)(F)F)cc3[nH]2)CC1 (max 10 µM): 0.0085
CNc1nc(-c2ccc3c(N)n[nH]c3c2)cc(N2C[C@@H](C(=O)NC3CCCCC3)CC[C@H]2C)n1 (max 10 µM): 0.295
CC(=O)O[C@H]1C(=O)[C@@]2(C)[C@H]([C@H](OC(=O)c3ccccc3)[C@]3(O)C[C@H](OC(=O)[C@H](O)[C@@H](NC(=O)c4ccccc4)c4ccccc4)C(C)=C1C3(C)C)[C@]1(OC(C)=O)CO[C@@H]1C[C@@H]2O [Paclitaxel] (max 1 µM): 0.948

Next, consider the following compound.
Ask | Item Cc1nc(NC(=O)N2CCC[C@H]2C(N)=O)sc1-c1ccnc(C(C)(C)C(F)(F)F)c1 [Alpelisib/BYL719] (max 10 µM) has what recorded area over the GR curve?
Reply | 0.0453
